# Test system: HFF
# test_summary: Inhibitory concentration required against human cytomegalovirus (HCMV) expressed in HFF cells was determined by plaque reduction assay
# Format: functional, cell-based
Let's look at some compounds and their measured IC50.

Examples from the recorded data:
compound="N/C(=N\\O)c1c(Cl)n(C2O[C@H](CO)[C@@H](O)C2O)c2cc(Cl)c(Cl)cc12 (single isomer, unassigned)" measurement_target=HFF recorded_endpoint=IC50 recorded_measurement="0.3 µM"
compound="CO/N=C/c1c(Cl)n(C2O[C@H](CO)[C@@H](O)C2O)c2cc(Cl)c(Cl)cc12 (single isomer, unassigned)" measurement_target=HFF recorded_endpoint=IC50 recorded_measurement="40 µM"
compound="O=Cc1c(Cl)n(C2O[C@H](CO)[C@@H](O)C2O)c2cc(Cl)c(Cl)cc12 (single isomer, unassigned)" measurement_target=HFF recorded_endpoint=IC50 recorded_measurement="0.23 µM"
compound="NC(=O)N/N=C/c1c(Cl)n(C2O[C@H](CO)[C@@H](O)[C@H]2O)c2cc(Cl)c(Cl)cc12 (stereo partly drawn)" measurement_target=HFF recorded_endpoint=IC50 recorded_measurement="3 µM"
compound="N/C(S)=N/N=C/c1c(Cl)n(C2O[C@H](CO)[C@@H](O)[C@H]2O)c2cc(Cl)c(Cl)cc12 (stereo partly drawn)" measurement_target=HFF recorded_endpoint=IC50 recorded_measurement="2.2 µM"
compound="COC(=O)N/N=C/c1c(Cl)n(C2O[C@H](CO)[C@@H](O)[C@H]2O)c2cc(Cl)c(Cl)cc12 (stereo partly drawn)" measurement_target=HFF recorded_endpoint=IC50 recorded_measurement="1.7 µM"
compound="COC(=N)c1c(Cl)n(C2O[C@H](CO)[C@@H](O)C2O)c2cc(Cl)c(Cl)cc12 (single isomer, unassigned)" measurement_target=HFF recorded_endpoint=IC50 recorded_measurement="0.36 µM"
compound="NC(=O)c1c(Cl)n(C2O[C@H](CO)[C@@H](O)C2O)c2cc(Cl)c(Cl)cc12 (single isomer, unassigned)" measurement_target=HFF recorded_endpoint=IC50 recorded_measurement="2 µM"
compound="CC(=O)N/N=C/c1c(Cl)n(C2O[C@H](CO)[C@@H](O)C2O)c2cc(Cl)c(Cl)cc12 (single isomer, unassigned)" measurement_target=HFF recorded_endpoint=IC50 recorded_measurement="1.7 µM"
compound="CN(C)/N=C/c1c(Cl)n(C2O[C@H](CO)[C@@H](O)C2O)c2cc(Cl)c(Cl)cc12 (single isomer, unassigned)" measurement_target=HFF recorded_endpoint=IC50 recorded_measurement="0.27 µM"

Ask: # return recorded IC50 for entry N/C(=N\O)c1c(Br)n(C2O[C@H](CO)[C@@H](O)C2O)c2cc(Cl)c(Cl)cc12 (single isomer, unassigned)
Result: 0.41 µM

Ask: # return recorded IC50 for entry OC[C@H]1OC(n2c(Cl)c(/C=N/O)c3cc(Cl)c(Cl)cc32)C(O)[C@@H]1O (single isomer, unassigned)
Result: 3.9 µM

Ask: # return recorded IC50 for entry N#Cc1c(Cl)n(C2O[C@H](CO)[C@@H](O)C2O)c2cc(Cl)c(Cl)cc12 (single isomer, unassigned)
Result: 0.55 µM

----------
Let's look at some compounds and their measured log10(IC50).
# test_summary: Inhibitory concentration required against herpes simplex virus type-1 (HSV-1) expressed in BSC-1 cells was determined by ELISA assay
# Format: functional, cell-based, Cercopithecidae
Values reflect log10 of reported IC50 (µM).

compound="CC(=O)N/N=C/c1c(Cl)n(C2O[C@H](CO)[C@@H](O)C2O)c2cc(Cl)c(Cl)cc12 (single isomer, unassigned)" recorded_measurement=1.48
compound="OC[C@H]1OC(n2c(Cl)c(/C=N/O)c3cc(Cl)c(Cl)cc32)C(O)[C@@H]1O (single isomer, unassigned)" recorded_measurement=0.70
compound="OC[C@H]1O[C@@H](n2c(Br)nc3cc(Cl)c(Cl)cc32)C(O)[C@@H]1O (single isomer, unassigned)" recorded_measurement=2.11
compound="NC(=O)c1c(Cl)n(C2O[C@H](CO)[C@@H](O)C2O)c2cc(Cl)c(Cl)cc12 (single isomer, unassigned)" recorded_measurement=1.60
compound="CN(C)/N=C/c1c(Cl)n(C2O[C@H](CO)[C@@H](O)C2O)c2cc(Cl)c(Cl)cc12 (single isomer, unassigned)" recorded_measurement=1.18

Now consider the entry below.
Ask: # return recorded log10(IC50) for entry O=Cc1c(Cl)n(C2O[C@H](CO)[C@@H](O)C2O)c2cc(Cl)c(Cl)cc12 (single isomer, unassigned)
Result: 1.60
